# test.details: IN Cell qHTS Assay for Inhibitors of the mTORC1 Signaling Pathway in MEF (Tsc2-/-, p53-/-) Cells: Sytravon; also: nearly all actives have a fitted effect of over 60% in size; also: potency is read from the fitted curve at half-maximal effect
# test.context: phospho-rpS6 immunofluorescence, 24 h; series mostly up to 38.3 µM
The whole screen tested about 2,100 compounds, of which about 210 (10%) were called active. About 53% were inconclusive and are not listed. The list shows a part of the results.
measured.parameter: Potency

CC(=O)c1cccc(NS(=O)(=O)c2ccc3[nH]c4c(c3c2)CCCCC4)c1 | inactive
CS(=O)(=O)c1ncc(Cl)c(C(=O)N2CCN(c3cccc(Cl)c3)CC2)n1 | 0.521 µM (active)
Cc1sc2ncn(CC(=O)N3CCN(c4ccc(Cl)cc4)CC3)c(=O)c2c1S(=O)(=O)N1CCN(c2ncccn2)CC1 | inactive
CCOc1ccc(CNC(=O)C2CCN(S(=O)(=O)c3ccc4c(ccn4C)c3)CC2)cc1 | inactive
COc1ccc(CC(=O)Nc2sc3c(c2C(=O)Nc2ccccc2)CCCCC3)cc1 | 9.27 µM (active)
COc1ccccc1NC(=O)c1c(NCc2ccc(C)o2)sc2c1CCCCC2 | inactive

# next molecule below
In: Any idea what Potency was measured for Cc1ccc(NC(=O)Cn2c(=O)c(CNc3ccccc3)cc3cc4c(cc32)OCCO4)cc1 ?
Out: inactive

----------
# test.details: IN Cell qHTS Assay for Inhibitors of the mTORC1 Signaling Pathway in MEF (Tsc2-/-, p53-/-) Cells: Sytravon; also: nearly all actives have a fitted effect of over 60% in size
# test.context: phospho-rpS6 immunofluorescence, 24 h; series mostly up to 38.3 µM
# From the text: NIH Molecular Libraries Probe Production Centers Network [MLPCN] NIH Chemical Genomics Center [NCGC] […] NCGC IN Cell Assay Protocol: For quantitative high throughput analysis of mTORC1 signaling, we developed a cell-based assay for immuno-fluorescence based detection of rpS6 phosphorylation on the Acumen Explorer that will be used a platform for the primary small molecule screen. […]
Hit rate of the full screen: of about 2,100 compounds, about 210 (10%) were called active. Not shown: some 53% with an inconclusive outcome. This is one part of the list.
measured.parameter: outcome

COc1cc(CNC(=O)c2ccc3nc(Cc4ccccc4)oc3c2)cc(OC)c1OC | inactive
CN1CCc2c(sc(NC(=O)CSc3ccccc3)c2-c2nc3ccccc3s2)C1 | inactive
O=C(NCCCc1nc2ccccc2n1Cc1ccc(Cl)cc1)c1ccco1 | inactive
